Recorded values, source paper PMC3906128.

tested_target: DOP-R1 (Rattus norvegicus)
method_summary: TAN67-stimulated [35S]GTPγS binding in rat brain membranes
Type: biochemical
assay_context: read-out: Mean (± SEM) EC50 for Midbrain Opioid Stimulation; midbrain membranes, ethanol-trained rats, SoRI-9409 (5 mg/kg I.P.)/Yohimbine (2 mg/kg I.P.)
readout: pEC50
// returns pEC50 (minus log10 of molar concentration), number only

Request: pEC50, test system DOP-R1 (Rattus norvegicus), entry Br.Br.CN1CC[C@]2(c3cccc(O)c3)Cc3nc4ccccc4cc3C[C@H]2C1 [TAN67, SB 205607 dihydrobromide]
5.28

---

tested_target: DOP-R1 (Rattus norvegicus, UniProt P33533)
Sequence (P33533 whole entry): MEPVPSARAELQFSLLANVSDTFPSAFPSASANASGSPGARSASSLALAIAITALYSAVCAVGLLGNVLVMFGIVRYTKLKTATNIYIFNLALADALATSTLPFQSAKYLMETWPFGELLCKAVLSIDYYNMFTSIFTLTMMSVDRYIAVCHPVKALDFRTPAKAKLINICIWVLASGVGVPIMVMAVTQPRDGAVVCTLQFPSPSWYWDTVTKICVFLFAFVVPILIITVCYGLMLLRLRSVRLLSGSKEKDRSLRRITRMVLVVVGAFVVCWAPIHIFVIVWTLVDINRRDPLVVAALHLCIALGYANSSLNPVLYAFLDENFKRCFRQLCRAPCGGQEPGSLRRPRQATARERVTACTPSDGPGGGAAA
method_summary: TAN67-stimulated [35S]GTPγS binding in rat brain membranes
Type: biochemical
assay_context: read-out: Mean (± SEM) EC50 for Midbrain Opioid Stimulation; midbrain membranes, ethanol-trained rats, SoRI-9409 (5 mg/kg I.P.)/Yohimbine-vehicle
readout: EC50

What value of EC50 has been reported for the following compound? Br.Br.CN1CC[C@]2(c3cccc(O)c3)Cc3nc4ccccc4cc3C[C@H]2C1 [TAN67, SB 205607 dihydrobromide]
> 100 µM
